- System: TO-3-N3 (biotin conjugate)
- assay: pull-down binding Z-score (relative to library population); higher = stronger binding
- details: RNA library: Library-2
Documented pull-down binding Z-score across a set of sequences
Lab note: jot down the number only; don't add units.

[
  {
    "sequence": "AUUAUGUUUUGGACAUAGAAACAUAAC [hsa-mir-5688]",
    "recorded-number": -0.878
  },
  {
    "sequence": "CUGACUUAACAAAGCCUUACAUUAAGUGGGAUUUGUUAAAAUAUGACUUCACGGAAGAGAGGUUAAAACUCUUUGACCGUUAUUUUAAAUAUUGG",
    "recorded-number": -0.707
  },
  {
    "sequence": "GCUUCUGCGUUAUCUGGAAGG [hsa-mir-4706]",
    "recorded-number": -0.466
  },
  {
    "sequence": "AAUAACUUACCUUUUAAGUUGACAUGUGCAACUACUAGACAAGUUGUU",
    "recorded-number": -0.907
  }
]

[Q] Query: pull-down binding Z-score; subject: "GUUUCUGCCUUUCCAACAAUUUGGCAGAGAC"
[A] -0.615

---

- System: TO-3-N3 (biotin conjugate)
- assay: pull-down binding Z-score (relative to library population); higher = stronger binding
- details: RNA library: Library-2
measurement-type: pull-down binding Z-score
Response field accepts a number only; no unit should be typed.

Example cases with answers are listed next.
[
  {
    "sequence": "CAUUUCAGCGUAUAUAUGUAUAUGUGGCUGUG [hsa-mir-19b-2]",
    "target-desc": "TO-3-N3 (biotin conjugate)",
    "pull-down binding Z-score": 1.07
  },
  {
    "sequence": "GAUUCUUGAGGCUUGGAAGAGUAAGGAUC [hsa-mir-6866]",
    "target-desc": "TO-3-N3 (biotin conjugate)",
    "pull-down binding Z-score": -0.0976
  },
  {
    "sequence": "UAAUGCUCUGAAAAUGACUCCAAUCAUUA [hsa-mir-3202-2]",
    "target-desc": "TO-3-N3 (biotin conjugate)",
    "pull-down binding Z-score": -0.685
  }
]

[Q] Recorded pull-down binding Z-score of AGUGUAAAAGUGCCUUUUACAUU [DMSMaPseq_invitro_SARS-CoV-2_Motif_79] , please.
[A] -0.69

[Q] Looking for the measured pull-down binding Z-score of GGCCAUCUGGCC [hsa-mir-4252] , can you help?
[A] -0.403

[Q] Could you tell me which pull-down binding Z-score is on file for GGCGGCUCGGAGUACCUCUGCCGCC [hsa-mir-6869] ?
[A] 0.86

[Q] Which pull-down binding Z-score is listed for AGUUACACAGCUCACGAGUGCCU [hsa-mir-370] ?
[A] -0.261

[Q] Entry UGGAUUUGAAAUGGUCCCACUCCUGACGAUCCU [hsa-mir-6748] : reported pull-down binding Z-score = ?
[A] -0.358

[Q] Need pull-down binding Z-score, item CUGUCUGUUGUCUAAGAAAAGAUCG [hsa-mir-517c_517b]
[A] -0.481

[Q] Which pull-down binding Z-score reading was recorded for the sequence CCAGUGCUGGGCUCAGACCCUGG [hsa-mir-150] ?
[A] -0.0352

[Q] Which measured pull-down binding Z-score value corresponds to AAGGUAAGAGGGAUACUUACCUG [U1snRNP5ss-26] ?
[A] -0.614

---

- Test system: TO-3-N3 (biotin conjugate)
- assay: pull-down binding Z-score (relative to library population); higher = stronger binding
- details: RNA library: Library-2
Assign class by pull-down binding Z-score: not lower than 0.05 means yes (1); lower than 0.05 means no (0).

[
  {
    "sequence": "AACAGGAGUCACCUUUUGUU",
    "category": "no (0)"
  }
]

[Q] Quick check, pull-down binding Z-score >= 0.05? AAGUGGAGCAGGAAUGCGCUUUUCUCCACUG [hsa-mir-5187]
[A] yes (1)

---

- Test system: TO-3-N3 (biotin conjugate)
- assay: pull-down binding Z-score (relative to library population); higher = stronger binding
- details: RNA library: Library-2
Form field: pull-down binding Z-score (one value per entry).
The answer should be a number; do not append a unit.

[
  {
    "sequence": "GGUACUUUAUAAUUUCAAAAAGUCCC [hsa-mir-361]",
    "measurement-type": "pull-down binding Z-score",
    "recorded-number": -1.13
  }
]

[Q] Provide value of pull-down binding Z-score for this record tested with TO-3-N3 (biotin conjugate): GUCUCGCACCCGCGAGAU [IAV_invivo_PB2_1_Motif_2+IAV_invivo_PB2_1_Motif_2]
[A] 0.583

[Q] Param readout= pull-down binding Z-score; system= TO-3-N3 (biotin conjugate); entry= GAGACAACUUCCCAGUCUC [hsa-mir-6717] ; returns value.
[A] -0.96

[Q] What is its pull-down binding Z-score for TO-3-N3 (biotin conjugate)? Entry: GUCUCGGUCCUUUGGAACGUGGC [hsa-mir-4470]
[A] -0.39

[Q] Given the entry GGUUUUGCCAUCAUGCCAAAAGCU [hsa-mir-548v] , what pull-down binding Z-score was observed with TO-3-N3 (biotin conjugate)?
[A] 0.00688

[Q] pull-down binding Z-score of UUUGAAGUGUUCUAAAUGGUUCAAA [hsa-mir-424] on TO-3-N3 (biotin conjugate)?
[A] -0.532

---

- Test system: TO-N3-2 (biotin conjugate)
- assay: pull-down binding Z-score (relative to library population); higher = stronger binding
- details: RNA library: Library-2
measurement-type: pull-down binding Z-score
The reply should be a number, written without any unit.

// worked examples, pull-down binding Z-score included
[
  {
    "sequence": "GAGGUGGGAAGGCUGCCCCAAAUGGCCUCUAACAUCCCUUCCAGUCUCCUCCUC [hsa-mir-6127]",
    "target-desc": "TO-N3-2 (biotin conjugate)",
    "pull-down binding Z-score": 0.919
  },
  {
    "sequence": "UGCGUUAGGAUUUCUGUAUCAUCCUCCUAACGCA [hsa-mir-3166]",
    "target-desc": "TO-N3-2 (biotin conjugate)",
    "pull-down binding Z-score": -0.758
  }
]

[Q] I'd like to know its pull-down binding Z-score. The sequence in question is "CUCGUCUAUCUUCUGCAGGCUGCUUACGGUUUCGUCCGUGUUGCAGCCGAUCAUCAGCACAUCUAGGUUUUGUCCGGGUGUGACCGAAAGGUAAGAUGGAGAG"
[A] -0.32

[Q] Name the recorded pull-down binding Z-score for CUGUUGUUUCAGCUCGACAACAACAG [hsa-mir-3937] .
[A] -0.505

[Q] Entry under review: AGUGGUGCAAUCUCAGUUCACU [hsa-mir-3135a] . Reported pull-down binding Z-score?
[A] -0.196

[Q] Would you mind telling me what pull-down binding Z-score value was observed for ACAUGCAGUAUUUGG [hsa-mir-1302-8] ?
[A] -0.0326

[Q] Recorded pull-down binding Z-score for GAAGCUCCUAUAGCUCCUGUAGCUUC [hsa-mir-578] , please?
[A] 0.587

---

- System: TO-N3-2 (biotin conjugate)
- assay: pull-down binding Z-score (relative to library population); higher = stronger binding
- details: RNA library: Library-2
Use pull-down binding Z-score to assign classes; range list: bin A: < -0.7; bin B: ≥ -0.7 and < -0.06; bin C: ≥ -0.06

[
  {
    "sequence": "GCGCAGCCAGAAACUGGCGGCGC [mismatch-AG]",
    "target-desc": "TO-N3-2 (biotin conjugate)",
    "category": "bin B"
  },
  {
    "sequence": "CUCUCCUGACCAGCUGAGCUGGAGGAGAG [hsa-mir-3160-2]",
    "target-desc": "TO-N3-2 (biotin conjugate)",
    "category": "bin A"
  }
]

[Q] Any idea which band AACUCCUGCGAGUCCCUGGAGUU [hsa-mir-1258] is in?
[A] bin B

[Q] Class for "UGGGGACCAGGAACUAAUCAGACAAGGAACUGAUUACAAACAUUGGCCGCAAAUUGCACAAUUUGCCCCCA" ?
[A] bin C

[Q] Assign a category based on measured pull-down binding Z-score for UCCCAGUUUUGGGG [IAV_invivo_PB1_2_Motif_27+IAV_invivo_PB1_2_Motif_27] and give only the class name.
[A] bin A

[Q] Class? Entry: GGCCCCAGGAAGAAGGGCCUGGUGGAGCC [hsa-mir-6743]
[A] bin C

[Q] Textbook exercise: identify the category of the sequence given here, GCAGUCCUGUGGGAAUGAGAGAUGCCAAACUGGACCUGC [hsa-mir-3972] , according to its measured value.
[A] bin C

---

- Tested on: TO-3-N3 (biotin conjugate)
- assay: pull-down binding Z-score (relative to library population); higher = stronger binding
- details: RNA library: Library-2
measurement-type: pull-down binding Z-score

Some solved entries appear below for comparison.
[
  {
    "sequence": "CCUCACCUGCUGAGAG [hsa-mir-3670-3_3670-2_3670-1_3670-4]",
    "pull-down binding Z-score": -0.258
  },
  {
    "sequence": "UCCAAACGCAAGCUUCGAUAAUUUUAAGUUUGUAUGUGA [SHAPE_invivo_SARS-CoV-2_Motif_125]",
    "pull-down binding Z-score": -0.388
  },
  {
    "sequence": "GGUAGGUUACGUCAUGCUGUUCUACC [hsa-mir-140]",
    "pull-down binding Z-score": -0.251
  },
  {
    "sequence": "CAGUUGUACUGUGGCUG [hsa-mir-1291]",
    "pull-down binding Z-score": 0.0428
  },
  {
    "sequence": "UUACCCAACGUCUCUGAGUCUCGGUUUUGAGAGGGUGAGUAA [hsa-mir-7973-1]",
    "pull-down binding Z-score": 0.0875
  }
]

[Q] Bench note: what pull-down binding Z-score did UGGCAAUUCAGUAAAAAUGCUCA [hsa-mir-6715b] show?
[A] -0.296

Taken from the supplement of paper PMC11865577.
